- tested.on: UniProt P52333
- Sequence (P52333 whole entry): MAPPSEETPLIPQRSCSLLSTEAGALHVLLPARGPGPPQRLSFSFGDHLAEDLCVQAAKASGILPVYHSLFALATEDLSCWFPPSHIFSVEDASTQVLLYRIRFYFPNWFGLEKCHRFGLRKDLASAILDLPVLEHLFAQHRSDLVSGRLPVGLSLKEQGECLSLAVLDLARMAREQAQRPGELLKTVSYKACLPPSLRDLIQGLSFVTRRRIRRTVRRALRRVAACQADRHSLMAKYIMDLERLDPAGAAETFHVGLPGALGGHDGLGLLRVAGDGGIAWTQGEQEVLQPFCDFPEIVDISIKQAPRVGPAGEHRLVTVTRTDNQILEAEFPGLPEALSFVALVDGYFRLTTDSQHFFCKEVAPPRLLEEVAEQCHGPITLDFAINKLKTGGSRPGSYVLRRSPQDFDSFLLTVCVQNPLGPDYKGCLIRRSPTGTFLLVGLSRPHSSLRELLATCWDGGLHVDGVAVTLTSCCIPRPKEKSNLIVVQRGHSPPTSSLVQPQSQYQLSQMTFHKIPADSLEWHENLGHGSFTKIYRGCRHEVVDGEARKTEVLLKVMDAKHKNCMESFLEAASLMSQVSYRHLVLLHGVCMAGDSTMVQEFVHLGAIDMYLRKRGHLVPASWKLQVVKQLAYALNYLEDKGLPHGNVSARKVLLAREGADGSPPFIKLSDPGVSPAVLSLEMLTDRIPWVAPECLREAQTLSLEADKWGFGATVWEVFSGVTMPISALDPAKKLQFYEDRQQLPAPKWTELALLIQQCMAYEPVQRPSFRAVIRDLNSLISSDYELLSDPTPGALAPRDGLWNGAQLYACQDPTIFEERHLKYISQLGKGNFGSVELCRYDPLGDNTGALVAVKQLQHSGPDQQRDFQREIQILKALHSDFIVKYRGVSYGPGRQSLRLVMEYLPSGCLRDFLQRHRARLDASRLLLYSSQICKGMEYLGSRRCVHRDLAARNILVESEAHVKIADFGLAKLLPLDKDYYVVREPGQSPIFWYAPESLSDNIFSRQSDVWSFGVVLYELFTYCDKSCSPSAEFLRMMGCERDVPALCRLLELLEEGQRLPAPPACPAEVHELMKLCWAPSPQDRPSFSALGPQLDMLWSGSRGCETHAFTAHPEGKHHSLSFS
- protocol.text: In Vitro Inhibition Assay: ITK and JAK3 Kinase assay procedures:Enzyme was incubated with substrate peptide in reaction buffer in the presence and absence of test compounds or Staurosporine. All additions were done on ice, followed by the addition of ATP mix. Wells were uniformly mixed using an Eppendorff plate shaker and incubated at 30° C. for 20 min, and stopped by the addition of 5 μL of 3% …
- Description: All additions were done on ice, followed by the addition of ATP mix. Wells were uniformly mixed using an Eppendorff plate shaker and incubated at 30° C. for 20 min, and stopped by the addition of 5 μL of 3% phosphoric acid. Volume was increased to 100 μL by adding 0.8% phosphoric acid which was then transferred to PC filter mats (Millipore), pre-equilibrated with 70% ethanol and water. Plates were washed thrice with 100 μL 0.8% phosphoric acid and dried for an hour at 60° C. 100 μL scintillation fluid was added into each well and reading taken in Perkin Elmer TOPCOUNT beta counter.
The entries below are paired with their reported IC50.

Example entries and their recorded answers appear below.
>  <smiles.str>
C=CC(=O)Nc1cccc(-c2cnc3[nH]ccc3n2)c1

>  <tested.on>
UniProt P52333

>  <IC50>
> 1000 nM

$$$$
>  <smiles.str>
CC/C=C/C(=O)Nc1cccc(-c2cnc3[nH]nc(C)c3c2)c1

>  <tested.on>
UniProt P52333

>  <IC50>
> 100 nM

$$$$
>  <smiles.str>
CC/C=C/C(=O)Nc1cccc(-c2cnc3[nH]cc(C)c3c2)c1

>  <tested.on>
UniProt P52333

>  <IC50>
> 1000 nM

$$$$
>  <smiles.str>
C=CC(=O)Nc1cccc(-c2cnc3[nH]cc(-c4cc5ccc(Cl)cc5[nH]4)c3n2)c1

>  <tested.on>
UniProt P52333

>  <IC50>
> 100 nM

$$$$
>  <smiles.str>
C=CC(=O)Nc1cccc(-c2cnc3c(c2)CC(=O)N3)c1

>  <tested.on>
UniProt P52333

>  <IC50>
> 100 nM

$$$$
>  <smiles.str>
C=CC(=O)Nc1cccc(-c2cnc3[nH]ccc3c2)c1

>  <tested.on>
UniProt P52333

>  <IC50>
> 1000 nM

$$$$
>  <smiles.str>
Cc1c[nH]c2ncc(-c3cccc(NC(=O)/C=C/N(C)C)c3)cc12

>  <tested.on>
UniProt P52333

>  <IC50>
> 1000 nM

$$$$
>  <smiles.str>
Cc1c[nH]c2ncc(-c3ccc(Cl)c(NC(=O)/C=C/N(C)C)c3)cc12

>  <tested.on>
UniProt P52333

>  <IC50>
> 1000 nM

$$$$
>  <smiles.str>
Cc1c[nH]c2ncc(Nc3cccc(CC#N)c3)cc12

>  <tested.on>
UniProt P52333

>  <IC50>
> 1000 nM

$$$$
>  <smiles.str>
CC/C=C/C(=O)Nc1cc(-c2cnc3[nH]cc(C)c3c2)ccc1Cl

>  <tested.on>
UniProt P52333

>  <IC50>
> 100 nM

$$$$

Enquiry: What value of IC50 has been recorded for this entry: C=CC(=O)Nc1cccc(-c2cnc3[nH]cc(-c4cc(F)cc(F)c4OC)c3n2)c1
Return: > 100 nM

Enquiry: What value of IC50 has been recorded for this entry: COc1c(F)cc(F)cc1-c1c[nH]c2ncc(-c3cc(NC(=O)/C(C)=C/C(C)(C)C)ccc3F)cc12
Return: < 100 nM
